Target: Dual specificity mitogen-activated protein kinase kinase 2 (Homo sapiens); further: in the data inactive means no Kd found up to 30 µM
Sequence (P36507 whole entry): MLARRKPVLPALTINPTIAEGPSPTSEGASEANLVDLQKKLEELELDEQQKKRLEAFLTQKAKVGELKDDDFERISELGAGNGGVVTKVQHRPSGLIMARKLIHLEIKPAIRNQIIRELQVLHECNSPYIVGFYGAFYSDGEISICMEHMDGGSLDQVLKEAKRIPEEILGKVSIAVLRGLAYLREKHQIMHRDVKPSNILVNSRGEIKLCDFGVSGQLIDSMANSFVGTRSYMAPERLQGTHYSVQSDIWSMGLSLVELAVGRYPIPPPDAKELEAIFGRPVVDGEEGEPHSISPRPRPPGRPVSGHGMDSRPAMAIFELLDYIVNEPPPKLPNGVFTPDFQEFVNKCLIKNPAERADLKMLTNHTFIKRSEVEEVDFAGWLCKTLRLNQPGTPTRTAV
Activity calls are given as the source filed them.
Answer with one of the outcomes given here: Y (active), N (inactive)

QUERY: What did the test return for COC(=O)N[C@@H](C)CNc1nccc(-c2cn(C(C)C)nc2-c2cc(Cl)cc(NS(C)(=O)=O)c2F)n1 ?
RESULT: N

QUERY: What did the test return for CO[C@H]1C[C@@H]2CC[C@@H](C)[C@@](O)(O2)C(=O)C(=O)N2CCCC[C@H]2C(=O)O[C@H]([C@H](C)C[C@@H]2CC[C@@H](OCCO)[C@H](OC)C2)CC(=O)[C@H](C)/C=C(\C)[C@@H](O)[C@@H](OC)C(=O)[C@H](C)C[C@H](C)/C=C/C=C/C=C/1C ?
RESULT: N

QUERY: What did the test return for Cc1ccc(-n2nc(C(C)(C)C)cc2NC(=O)NCc2cc(F)ccc2Oc2ccc3c(cnn3CCO)c2)cc1 ?
RESULT: N

QUERY: What did the test return for CC[C@H](Nc1ncnc2[nH]cnc12)c1nc2cccc(F)c2c(=O)n1-c1ccccc1 ?
RESULT: N

QUERY: What did the test return for C[C@@H](Nc1cc(F)cc(F)c1)c1cc(C(=O)N(C)C)cc2c(=O)cc(N3CCOCC3)oc12 ?
RESULT: N

QUERY: What did the test return for Cn1cc(-c2ccc3nnc(C(F)(F)c4ccc5ncccc5c4)n3n2)cn1 ?
RESULT: N

QUERY: What did the test return for C1=C/COCc2cc(ccc2OCCN2CCCC2)Nc2nccc(n2)-c2cccc(c2)COC/1 ?
RESULT: N

QUERY: What did the test return for COc1cc2nccc(Oc3ccc(NC(=O)NC4CC4)c(Cl)c3)c2cc1C(N)=O ?
RESULT: N

QUERY: What did the test return for CC(C)Nc1cc(-c2c[nH]c(C(=O)N[C@H](CO)c3cccc(Cl)c3)c2)c(Cl)cn1 ?
RESULT: N

====

Target: Interleukin-1 receptor-associated kinase 1 (Homo sapiens, UniProt P51617); further: in the data inactive means no Kd found up to 30 µM
Sequence (P51617 whole entry): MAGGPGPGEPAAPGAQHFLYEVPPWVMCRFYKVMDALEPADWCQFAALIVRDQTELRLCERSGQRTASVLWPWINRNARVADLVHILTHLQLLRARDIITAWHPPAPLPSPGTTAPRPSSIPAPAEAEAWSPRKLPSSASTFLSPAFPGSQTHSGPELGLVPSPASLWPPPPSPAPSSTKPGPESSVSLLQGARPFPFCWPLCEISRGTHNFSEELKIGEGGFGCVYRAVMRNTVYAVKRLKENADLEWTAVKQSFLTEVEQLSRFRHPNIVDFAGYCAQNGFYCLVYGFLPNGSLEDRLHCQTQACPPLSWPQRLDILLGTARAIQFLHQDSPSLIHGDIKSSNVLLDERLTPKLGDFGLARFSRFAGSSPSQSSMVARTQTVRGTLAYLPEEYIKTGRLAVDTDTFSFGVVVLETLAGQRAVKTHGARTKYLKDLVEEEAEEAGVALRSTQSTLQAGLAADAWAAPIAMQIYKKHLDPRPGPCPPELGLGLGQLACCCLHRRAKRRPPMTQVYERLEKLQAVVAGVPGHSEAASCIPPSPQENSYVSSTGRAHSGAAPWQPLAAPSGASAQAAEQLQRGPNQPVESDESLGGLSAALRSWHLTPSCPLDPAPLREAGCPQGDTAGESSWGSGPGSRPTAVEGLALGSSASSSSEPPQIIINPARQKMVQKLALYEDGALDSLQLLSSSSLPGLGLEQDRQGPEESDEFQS
Calls of active or inactive are those of the source.
Answer with one of the outcomes given here: y = active, n = inactive

Worked examples, 4 molecules total:
COC(=O)N[C@@H](C)CNc1nccc(-c2cn(C(C)C)nc2-c2cc(Cl)cc(NS(C)(=O)=O)c2F)n1; y
COc1cc(N2CCC(N3CCN(C)CC3)CC2)ccc1Nc1ncnc(Nc2ccccc2S(=O)(=O)C(C)C)n1; n
CO[C@H]1C[C@@H]2CC[C@@H](C)[C@@](O)(O2)C(=O)C(=O)N2CCCC[C@H]2C(=O)O[C@H]([C@H](C)C[C@@H]2CC[C@@H](OCCO)[C@H](OC)C2)CC(=O)[C@H](C)/C=C(\C)[C@@H](O)[C@@H](OC)C(=O)[C@H](C)C[C@H](C)/C=C/C=C/C=C/1C; n
CN1CCC(CNc2ccc3ncc(-c4cccc(OC(F)(F)F)c4)n3n2)CC1; n

QUERY: What did the test return for COc1ccc(-c2ccc3c(N4CCOC[C@@H]4C)nc(N4CCOC[C@@H]4C)nc3n2)cc1CO ?
RESULT: n

QUERY: What did the test return for O=C(c1ccc(F)c(F)c1Nc1ccc(I)cc1F)N1CC(O)([C@@H]2CCCCN2)C1 ?
RESULT: n

QUERY: What did the test return for O=C1NC(=O)/C(=C/c2ccc3nccc(-c4ccncc4)c3c2)S1 ?
RESULT: n

====

Target: Mitogen-activated protein kinase 9 (Homo sapiens, UniProt P45984); further: in the data inactive means no Kd found up to 30 µM
Sequence (P45984 whole entry): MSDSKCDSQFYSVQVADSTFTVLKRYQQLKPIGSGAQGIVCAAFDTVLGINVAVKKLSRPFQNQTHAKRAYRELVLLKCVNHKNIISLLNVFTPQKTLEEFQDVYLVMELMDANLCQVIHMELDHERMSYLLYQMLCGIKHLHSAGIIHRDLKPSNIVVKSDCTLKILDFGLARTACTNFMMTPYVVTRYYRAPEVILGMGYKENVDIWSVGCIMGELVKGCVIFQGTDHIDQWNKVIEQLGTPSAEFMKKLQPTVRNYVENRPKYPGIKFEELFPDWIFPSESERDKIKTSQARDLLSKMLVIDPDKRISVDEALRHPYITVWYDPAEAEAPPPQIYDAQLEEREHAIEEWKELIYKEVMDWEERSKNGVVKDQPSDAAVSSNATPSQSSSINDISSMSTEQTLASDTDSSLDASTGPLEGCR
Calls of active or inactive are those of the source.
Answer with one of the outcomes given here: TRUE (active), FALSE (inactive)

Worked examples, 5 compounds total:
CNC(=O)CN1CCC(Oc2cc3c(Nc4cccc(Cl)c4F)ncnc3cc2OC)CC1; FALSE
Cc1ccc(S(=O)(=O)Nc2nc3ccccc3nc2Nc2ccc3nsnc3c2)cc1; FALSE
CCn1c(=O)c(-c2cc[nH]n2)cc2c(C)nc(N)nc21; FALSE
CO[C@H]1C[C@@H]2CC[C@@H](C)[C@@](O)(O2)C(=O)C(=O)N2CCCC[C@H]2C(=O)O[C@H]([C@H](C)C[C@@H]2CC[C@@H](OCCO)[C@H](OC)C2)CC(=O)[C@H](C)/C=C(\C)[C@@H](O)[C@@H](OC)C(=O)[C@H](C)C[C@H](C)/C=C/C=C/C=C/1C; FALSE
Cn1cc(-c2ccc3nnc(C(F)(F)c4ccc5ncccc5c4)n3n2)cn1; FALSE

QUERY: What did the test return for C[C@@H]1CN(Cc2ccc(F)cc2)[C@@H](C)CN1C(=O)c1cc2c(C(=O)C(=O)N(C)C)cn(C)c2cc1Cl ?
RESULT: FALSE

QUERY: What did the test return for O=C(c1ccc(F)c(F)c1Nc1ccc(I)cc1F)N1CC(O)([C@@H]2CCCCN2)C1 ?
RESULT: FALSE

QUERY: What did the test return for CN1CCC(CNc2ccc3ncc(-c4cccc(OC(F)(F)F)c4)n3n2)CC1 ?
RESULT: FALSE

QUERY: What did the test return for CN(C)C(=O)c1cc2cnc(Nc3ccc(N4CCNCC4)cn3)nc2n1C1CCCC1 ?
RESULT: FALSE

====

Biological target: Mitogen-activated protein kinase kinase kinase kinase 3 (Homo sapiens, UniProt Q8IVH8); further: in the data inactive means no Kd found up to 30 µM
Sequence (Q8IVH8 whole entry): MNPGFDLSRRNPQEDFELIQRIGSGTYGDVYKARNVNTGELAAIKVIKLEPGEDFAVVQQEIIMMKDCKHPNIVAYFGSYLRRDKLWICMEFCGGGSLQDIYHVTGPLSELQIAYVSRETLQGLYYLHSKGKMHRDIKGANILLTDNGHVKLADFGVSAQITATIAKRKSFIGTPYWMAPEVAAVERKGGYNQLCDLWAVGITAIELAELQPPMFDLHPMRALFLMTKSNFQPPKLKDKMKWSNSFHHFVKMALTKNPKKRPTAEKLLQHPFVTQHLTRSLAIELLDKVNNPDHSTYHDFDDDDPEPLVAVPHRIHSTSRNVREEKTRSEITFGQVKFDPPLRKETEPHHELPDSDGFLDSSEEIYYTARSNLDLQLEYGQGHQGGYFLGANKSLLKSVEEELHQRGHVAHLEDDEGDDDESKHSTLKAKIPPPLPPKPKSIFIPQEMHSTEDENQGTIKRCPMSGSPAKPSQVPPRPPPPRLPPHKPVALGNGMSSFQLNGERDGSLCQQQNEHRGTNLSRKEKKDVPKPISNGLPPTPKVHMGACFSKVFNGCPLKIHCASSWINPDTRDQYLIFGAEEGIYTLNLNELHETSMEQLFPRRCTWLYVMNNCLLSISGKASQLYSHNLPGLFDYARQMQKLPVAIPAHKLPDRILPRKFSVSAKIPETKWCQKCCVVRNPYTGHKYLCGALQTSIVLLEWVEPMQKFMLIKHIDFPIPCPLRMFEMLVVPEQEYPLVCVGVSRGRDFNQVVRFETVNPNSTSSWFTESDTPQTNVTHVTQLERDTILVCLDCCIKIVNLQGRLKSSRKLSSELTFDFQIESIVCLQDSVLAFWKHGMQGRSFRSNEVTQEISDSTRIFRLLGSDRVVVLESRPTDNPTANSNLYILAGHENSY
Active and inactive are the calls of the source.
Answer with one of the outcomes given here: active, inactive

C1=C/COCc2cc(ccc2OCCN2CCCC2)Nc2nccc(n2)-c2cccc(c2)COC/1 [PACRITINIB]; inactive
CCc1cnn2c(NCc3ccc[n+]([O-])c3)cc(N3CCCC[C@H]3CCO)nc12 [DINACICLIB]; inactive
C=CC(=O)N1CCC(Oc2cc3c(Nc4ccc(Cl)c(Cl)c4F)ncnc3cc2OC)CC1 [POZIOTINIB]; inactive
CC(=O)Nc1cccc(-n2c(=O)n(C3CC3)c(=O)c3c(Nc4ccc(I)cc4F)n(C)c(=O)c(C)c32)c1 [TRAMETINIB]; inactive
COC(=O)N[C@@H](C)CNc1nccc(-c2cn(C(C)C)nc2-c2cc(Cl)cc(NS(C)(=O)=O)c2F)n1 [ENCORAFENIB]; inactive
CNS(=O)(=O)Nc1nccc(Cc2c(C)c3ccc(Oc4ncccn4)cc3oc2=O)c1F [AVUTOMETINIB]; inactive

QUERY: What did the test return for COc1cc(CCc2cc(NC(=O)c3ccc(N4C[C@@H](C)N[C@@H](C)C4)cc3)n[nH]2)cc(OC)c1 [AZD-4547] ?
RESULT: active

QUERY: What did the test return for O=C1NC(=O)/C(=C/c2ccc3nccc(-c4ccncc4)c3c2)S1 [GSK-1059615] ?
RESULT: inactive

QUERY: What did the test return for Cc1cc(-c2cc(O)ccc2Cl)cc2nnc(Nc3ccc(OCCN4CCCC4)cc3)nc12 ?
RESULT: inactive

QUERY: What did the test return for O=C(O)[C@]1(Cc2cccc(Nc3nccs3)n2)CC[C@@H](Oc2cccc(Cl)c2F)CC1 [MK-5108] ?
RESULT: inactive

QUERY: What did the test return for CNC(=O)c1ccc(C)c(-n2c(C)cc(OCc3ccc(F)cc3F)c(Br)c2=O)c1 [PH-797804] ?
RESULT: inactive

QUERY: What did the test return for C[C@@H]1CN(Cc2ccc(F)cc2)[C@@H](C)CN1C(=O)c1cc2c(C(=O)C(=O)N(C)C)cn(C)c2cc1Cl [TALMAPIMOD] ?
RESULT: inactive

QUERY: What did the test return for C[C@@H](Nc1cc(F)cc(F)c1)c1cc(C(=O)N(C)C)cc2c(=O)cc(N3CCOCC3)oc12 [AZD-8186] ?
RESULT: inactive

QUERY: What did the test return for COc1ccc(-c2ccc3c(N4CCOC[C@@H]4C)nc(N4CCOC[C@@H]4C)nc3n2)cc1CO [AZD-8055] ?
RESULT: inactive

QUERY: What did the test return for Cc1cc(Nc2cc(N3CCN(C)CC3)nc(/C=C/c3ccccc3)n2)n[nH]1 [ENMD-2076] ?
RESULT: inactive

QUERY: What did the test return for Cn1cc(-c2ccc(F)c(C(F)(F)F)c2)nc1C1CCN(c2ncnc3[nH]ncc23)CC1 [LY-2584702] ?
RESULT: inactive
